Biological target: Leucine-rich repeat serine/threonine-protein kinase 2 (Homo sapiens);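 also: mean percent inhibition of LRRK2 measured in the GSK PKIS kinase inhibitor set screen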
Details: at 1 µM
endpointName: inhibition

Reported inhibition for `c1cc(-c2cnn3nc(N4CCOCC4)ccc23)nc(NC2CC2)n1` : what is it?
16.4%

Reported inhibition for `COc1cc2ncn(-c3cc(OCc4ccccc4C(F)(F)F)c(C(=O)N(C)C)s3)c2cc1OC` : what is it?
15.2%

Reported inhibition for `c1ccc(COc2ccc(Nc3ncnc4ccc(-c5ccco5)cc34)cc2)cc1` : what is it?
3.99%

====

Target: Serine/threonine-protein kinase MARK1 (Homo sapiens) (UniProt Q9P0L2);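 also: reported values are mean percent inhibition of MARK1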
Sequence (Q9P0L2 whole entry, looked up): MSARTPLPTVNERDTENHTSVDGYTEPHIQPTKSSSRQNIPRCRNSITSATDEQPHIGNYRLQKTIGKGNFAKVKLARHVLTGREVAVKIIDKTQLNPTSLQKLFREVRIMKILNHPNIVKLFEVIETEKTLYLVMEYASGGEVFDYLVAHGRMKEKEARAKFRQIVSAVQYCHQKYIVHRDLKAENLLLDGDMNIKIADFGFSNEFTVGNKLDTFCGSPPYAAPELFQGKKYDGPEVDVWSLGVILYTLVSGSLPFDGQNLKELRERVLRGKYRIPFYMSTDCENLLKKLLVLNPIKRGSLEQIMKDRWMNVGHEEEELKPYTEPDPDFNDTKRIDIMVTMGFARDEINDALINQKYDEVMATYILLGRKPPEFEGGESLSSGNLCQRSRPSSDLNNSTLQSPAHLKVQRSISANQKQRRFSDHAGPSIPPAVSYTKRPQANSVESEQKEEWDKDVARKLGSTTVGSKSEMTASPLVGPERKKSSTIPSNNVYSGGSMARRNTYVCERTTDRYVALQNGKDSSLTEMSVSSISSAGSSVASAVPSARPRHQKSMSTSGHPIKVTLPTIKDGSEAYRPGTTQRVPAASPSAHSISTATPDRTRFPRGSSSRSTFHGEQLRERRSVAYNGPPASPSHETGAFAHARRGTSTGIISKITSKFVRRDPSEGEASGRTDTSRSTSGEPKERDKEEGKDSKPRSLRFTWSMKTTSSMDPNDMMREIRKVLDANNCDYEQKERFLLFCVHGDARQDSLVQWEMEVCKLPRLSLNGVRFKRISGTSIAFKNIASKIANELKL
Conditions: at 1 µM
List of inhibition values.
Numbers only here, please. The scale is %.

Before answering, review these 5 worked examples.
INSERT INTO results (molecule, measurementtarget, endpointunit, observed) VALUES
  ('CS(=O)(=O)CCNCc1coc(-c2ccc3ncnc(Nc4ccc(OCc5ccccc5)cc4)c3c2)c1', 'Serine/threonine-protein kinase MARK1 (Homo sapiens) (UniProt Q9P0L2)', '%', 1.62),
  ('COc1ccc(-c2cc(-c3c[nH]nc3-c3ccccn3)ccn2)cc1', 'Serine/threonine-protein kinase MARK1 (Homo sapiens) (UniProt Q9P0L2)', '%', 7.25),
  ('Fc1ccc(-c2cc(-c3c[nH]nc3-c3ccccn3)ccn2)cc1', 'Serine/threonine-protein kinase MARK1 (Homo sapiens) (UniProt Q9P0L2)', '%', 3.39),
  ('Cc1ccc2c(-c3ccnc(Nc4ccccc4)n3)c(-c3ccc(F)cc3)nn2n1', 'Serine/threonine-protein kinase MARK1 (Homo sapiens) (UniProt Q9P0L2)', '%', 2.96),
  ('Nc1nc(-c2cccc(Cl)c2)c(-c2ccc3ncccc3n2)s1', 'Serine/threonine-protein kinase MARK1 (Homo sapiens) (UniProt Q9P0L2)', '%', 4.17);

Reported inhibition for `COc1ccc(CNC(=O)c2ccc(-c3cc(-c4nnc(C)o4)ccc3C)cc2)cc1` : what is it?
2.91

Reported inhibition for `COc1cc2ncn(-c3cc(OCc4ccccc4C(F)(F)F)c(C(=O)N(C)C)s3)c2cc1OC` : what is it?
1.45

Reported inhibition for `CCc1nn2ncccc2c1-c1ccnc(NC2CC2)n1` : what is it?
2.47

Reported inhibition for `COC(=O)Nc1nc2ccc(Oc3ccc(NC(=O)Nc4cccc(Cl)c4)cc3)cc2[nH]1` : what is it?
2.88

Reported inhibition for `CC(=O)Nc1cccc(C#Cc2cncnc2Nc2ccc(OCc3cccc(F)c3)c(Cl)c2)c1` : what is it?
0.83
